Biological target: T1, Recombinant human Glypican-3 (human, UniProt P51654 25-559, limits assumed, randomly biotinylated via Lysine residues (EZ-Link Sulfo-NHS-LC-LC-Biotin) where captured on Neutravidin; not biotinylated where used as competitor in solution)
T1 construct: Bought protein; The biotinylated and the non-biotinylated preparation are written as one molecule; also called GPC3; GPC-3
T1 sequence (P51654 25-559 limits assumed): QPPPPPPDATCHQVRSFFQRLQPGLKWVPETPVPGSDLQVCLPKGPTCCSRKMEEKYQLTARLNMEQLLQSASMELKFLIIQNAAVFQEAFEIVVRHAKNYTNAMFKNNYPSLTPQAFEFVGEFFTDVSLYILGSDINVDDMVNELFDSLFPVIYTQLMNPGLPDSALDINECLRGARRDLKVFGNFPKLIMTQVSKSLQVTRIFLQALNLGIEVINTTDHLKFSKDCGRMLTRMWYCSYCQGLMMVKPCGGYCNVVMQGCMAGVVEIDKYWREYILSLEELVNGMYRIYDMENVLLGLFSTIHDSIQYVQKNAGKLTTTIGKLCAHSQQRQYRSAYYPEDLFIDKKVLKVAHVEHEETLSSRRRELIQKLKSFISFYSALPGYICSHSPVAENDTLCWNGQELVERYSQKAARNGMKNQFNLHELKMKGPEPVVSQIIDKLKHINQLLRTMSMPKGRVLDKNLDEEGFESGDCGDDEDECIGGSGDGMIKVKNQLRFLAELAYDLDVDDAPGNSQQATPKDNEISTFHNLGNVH
Test: SPR (Biacore T100), Glypican-3 amine-coupled to a CM5 chip, mutein as analyte, evaluated conc 40/120 nM, 1:1 model
Test Readout: kon (M⁻¹ s⁻¹)
Please state the figure in M⁻¹ s⁻¹; there is no need to write the unit.

For record PIE-G3E (designed binder, C-terminal Strep-tag II; also called Lcn2 mutein; not shown: C-terminal Strep-tag II) QDSTSDLIPAPPLSKVPLQQNFQDNQFHGKWYVVGSAGNHRLREDKDPRKMHATIYELKEDKSYNVTNVTFREKKCHYSIGTFVPGSQPGEFTLGKIKSNPGMTSFLVRVVSTNYNQHAMVFFKKVHQNREQFNITLYGRTKELTSELKENFIRFSKSLGLPENHIVFPVPIDQCIDGSAWSHPQFEK the listed kon is 5.11e+06

Looking up PIE-G3F (designed binder, C-terminal Strep-tag II; also called Lcn2 mutein; not shown: C-terminal Strep-tag II) QDSTSDLIPAPPLSKVPLQQNFQDNQFHGKWYVVGIAGNGQLREDKDPWKMSATIYELKEDKSYNVTSVRFRLKKCSYWIYTFVPGSQPGEFTLGGIKSNPGDTSNLVRVVSTNYNQHAMVFFKYVIQNREWFIITLYGRTKELTSELKENFIRFSKSLGLPENHIVFPVPIDQCIDGSAWSHPQFEK , I found its kon recorded as 409000

Measured kon of PIE-G3B (designed binder, C-terminal Strep-tag II; also called Lcn2 mutein; not shown: C-terminal Strep-tag II) QDSTSDLIPAPPLSKVPLQQNFQDNQFHGKWYVVGVAGNAMLREDKDPLKMRATIYELKEDKSYNVTGVSFWRKKCHYKIGTFVPGSQPGEFTLGDIKSGPGQTSNLVRVVSTNYNQHAMVFFKEVRQNREWFAITLYGRTKELTSELKENFIRFSKSLGLPENHIVFPVPIDQCIDGSAWSHPQFEK : 438000

Input PIE-G3C (designed binder, C-terminal Strep-tag II; also called Lcn2 mutein; not shown: C-terminal Strep-tag II) QDSTSDLIPAPPLSKVPLQQNFQDNQFHGKWYVVGRAGNVALREDKDPPKMRATIYELKEDKSYNVTNVRFAMKKCMYSIGTFVPGSQPGEFTLGQIKSEPGNTSNLVRVVSTNYNQHAMVFFKEVYQNREIFFITLYGRTKELTSELKENFIRFSKSLGLPENHIVFPVPIDQCIDGSAWSHPQFEK . Output kon: 1.97e+06
